Experiment: Stability in liver microsomes, rat
Reported Trep Concentration 60 min values for a set of compounds
Just the number in µM, nothing appended.

Please review the following examples before continuing.
CCCCCC(CCC1C(O)CC2Cc3c(cccc3OCC(=O)O)CC21)OP(=O)(O)O (centres unmarked) [VI]; 0.73
CCCCC[C@H]1CC[C@@H]2[C@H]3Cc4cccc(OCC(=O)O)c4C[C@H]3C[C@H]2OC(=O)O1 [XXIV]; 0.681
CCCCCC(CCC1C(O)CC2Cc3c(cccc3OCC(=O)O)CC21)Oc1ccccc1C(=O)O (centres unmarked) [LVI]; 0
CCCCCC(CCC1C(O)CC2Cc3c(cccc3OCC(=O)O)CC21)OC(=O)c1ccc(O)c(O)c1 (centres unmarked) [LXVI]; 0.00722
CCCCCC(CCC1C(O)CC2Cc3c(cccc3OCC(=O)O)CC21)OC(=O)c1ccc(OC(F)(F)F)cc1 (centres unmarked) [LXIII]; 0.0824
CCCCCC(CCC1C(O)CC2Cc3c(cccc3OCC(=O)O)CC21)OC(C)=O (centres unmarked) [XLIII]; 0.206
CCCCCC(CCC1C(O)CC2Cc3c(cccc3OCC(=O)O)CC21)OC(=O)c1ccccc1O (centres unmarked) [LXI]; 0.00402
CCCCCC(CCC1C(O)CC2Cc3c(cccc3OCC(=O)O)CC21)OCC(=O)O (centres unmarked) [LVII]; 0
CCCCCC(O)CCC1C(OC(=O)CCC(=O)O)CC2Cc3c(cccc3OCC(=O)O)CC21 (centres unmarked) [XXII]; 0.016
CCCCCC(CCC1C(O)CC2Cc3c(cccc3OCC(=O)O)CC21)OCC (centres unmarked) [XLVII]; 0.0719

Hello, please tell me recorded Trep Concentration 60 min for this one: CCCCCC(CCC1C(O)CC2Cc3c(cccc3OCC(=O)O)CC21)OC(N)=O (centres unmarked) [XLII] 0.29

Hello, please tell me recorded Trep Concentration 60 min for this one: CCCCCC(CCC1C(O)CC2Cc3c(cccc3OCC(=O)O)CC21)OC(=O)COc1ccc(OC(F)(F)F)cc1 (centres unmarked) [LXIV] 0.753

Hello, please tell me recorded Trep Concentration 60 min for this one: CCCCCC(CCC1C(O)CC2Cc3c(cccc3OCC(=O)O)CC21)OC(=O)N1CCC(O)CC1 (centres unmarked) [LVIII] 0

Hello, please tell me recorded Trep Concentration 60 min for this one: CCCCCC(CCC1C(O)CC2Cc3c(cccc3OCC(=O)O)CC21)OC(=O)CCC(=O)N1CCOCC1 (centres unmarked) [XXXIII] 0.0498

Hello, please tell me recorded Trep Concentration 60 min for this one: CCCCCC(CCC1C(O)CC2Cc3c(cccc3OCC(=O)O)CC21)OC(=O)COc1ccc(O)cc1 (centres unmarked) [LIV] 0.811

Hello, please tell me recorded Trep Concentration 60 min for this one: CCCCC[C@@H](CC[C@@H]1[C@H]2Cc3cccc(OCC(=O)O)c3C[C@H]2C[C@H]1O)OC(=O)[C@@H](N)C(C)C [XXIX] 0.0178

Hello, please tell me recorded Trep Concentration 60 min for this one: CCCCCC(CCC1C(O)CC2Cc3c(cccc3OCC(=O)O)CC21)OCCC (centres unmarked) [XLVI] 0.123

====

Reported Trep Concentration 10 min values for a set of compounds
Experiment: Stability in liver microsomes, rat
Just the number in µM, nothing appended.

Please review the following examples before continuing.
CCCCCC(CCC1C(O)CC2Cc3c(cccc3OCC(=O)O)CC21)OC(=O)CN (centres unmarked); 0.0524
CCCCCC(CCC1C(O)CC2Cc3c(cccc3OCC(=O)O)CC21)OP(=O)(O)O (centres unmarked); 0.39
CCCCCC(CCC1C(O)CC2Cc3c(cccc3OCC(=O)O)CC21)OC(=O)C(N)CCCCN (centres unmarked); 0.0305

Hello, please tell me recorded Trep Concentration 10 min for this one: CCCCCC(CCC1C(O)CC2Cc3c(cccc3OCC(=O)O)CC21)OCOC(=O)C(C)(C)C (centres unmarked) 0.938

Hello, please tell me recorded Trep Concentration 10 min for this one: CCCCCC(CCC1C(O)CC2Cc3c(cccc3OCC(=O)O)CC21)OC(=O)COc1ccccc1 (centres unmarked) 0.898

Hello, please tell me recorded Trep Concentration 10 min for this one: CCCCCC(CCC1C(O)CC2Cc3c(cccc3OCC(=O)O)CC21)OC(=O)COc1ccc(O)cc1 (centres unmarked) 0.784

Hello, please tell me recorded Trep Concentration 10 min for this one: CCCCCC(CCC1C(O)CC2Cc3c(cccc3OCC(=O)O)CC21)OC(=O)CCC(=O)N1CCOCC1 (centres unmarked) 0.0193

Hello, please tell me recorded Trep Concentration 10 min for this one: CCCCCC(O)CCC1C(OC(=O)CCC(=O)O)CC2Cc3c(cccc3OCC(=O)O)CC21 (centres unmarked) 0

Hey, just so you know, these numbers are from patent US12491170B2.
